Target: MT1 receptor (Homo sapiens)
Sequence (P48039 whole entry): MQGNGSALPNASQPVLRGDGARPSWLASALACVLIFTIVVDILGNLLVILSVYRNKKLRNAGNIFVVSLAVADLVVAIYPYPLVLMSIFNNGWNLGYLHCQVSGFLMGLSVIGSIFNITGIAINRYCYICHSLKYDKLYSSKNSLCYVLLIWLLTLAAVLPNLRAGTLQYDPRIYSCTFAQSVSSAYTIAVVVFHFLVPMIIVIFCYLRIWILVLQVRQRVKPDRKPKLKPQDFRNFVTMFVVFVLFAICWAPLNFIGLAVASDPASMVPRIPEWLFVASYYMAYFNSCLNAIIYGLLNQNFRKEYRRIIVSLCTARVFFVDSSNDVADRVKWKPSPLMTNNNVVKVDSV
Test: [35S]‐GTPγS binding assay, MT1
Details: read-out: EC50 of stimulation of specific [35S]‐GTPγS binding, MT1 receptor
measurement.kind: EC50 (nM)
Enter your answer as a number in nM; do not include the unit.

# input // lookup EC50 for "[2H]C([2H])([2H])Oc1cc2c(CCNC(C)=O)cccc2cc1Cl"
# output 2.49

* * *

Target sequence: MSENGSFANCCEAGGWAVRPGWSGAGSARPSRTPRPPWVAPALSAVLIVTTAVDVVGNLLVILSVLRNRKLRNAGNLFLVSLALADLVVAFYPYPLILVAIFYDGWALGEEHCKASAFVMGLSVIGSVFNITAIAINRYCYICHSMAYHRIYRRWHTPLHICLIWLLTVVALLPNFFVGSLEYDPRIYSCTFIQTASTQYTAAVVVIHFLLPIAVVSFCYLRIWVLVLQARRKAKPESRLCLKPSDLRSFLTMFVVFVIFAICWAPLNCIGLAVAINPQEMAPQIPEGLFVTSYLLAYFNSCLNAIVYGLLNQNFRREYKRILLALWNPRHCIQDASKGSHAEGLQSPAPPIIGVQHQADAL
measurement.kind: Ki

# input For the compound shown here, [2H]C([2H])([2H])Oc1cc2c(CCNC(C)=O)cccc2cc1Cl [GW117] , give the reported Ki.
# output 0.054 µM

* * *

Biological target: MT2 receptor (Homo sapiens)
Experiment: [35S]‐GTPγS binding assay, MT2
Conditions: read-out: EC50 of stimulation of specific [35S]‐GTPγS binding, MT2 receptor
measurement.kind: EC50 (nM)
// units = nM; emit number, no label

# input Return reported EC50; argument: [2H]C([2H])([2H])Oc1cc2c(CCNC(C)=O)cccc2cc1Cl [GW117]
# output 1.54

* * *

Target: UniProt P08909
Sequence (P08909 33-460): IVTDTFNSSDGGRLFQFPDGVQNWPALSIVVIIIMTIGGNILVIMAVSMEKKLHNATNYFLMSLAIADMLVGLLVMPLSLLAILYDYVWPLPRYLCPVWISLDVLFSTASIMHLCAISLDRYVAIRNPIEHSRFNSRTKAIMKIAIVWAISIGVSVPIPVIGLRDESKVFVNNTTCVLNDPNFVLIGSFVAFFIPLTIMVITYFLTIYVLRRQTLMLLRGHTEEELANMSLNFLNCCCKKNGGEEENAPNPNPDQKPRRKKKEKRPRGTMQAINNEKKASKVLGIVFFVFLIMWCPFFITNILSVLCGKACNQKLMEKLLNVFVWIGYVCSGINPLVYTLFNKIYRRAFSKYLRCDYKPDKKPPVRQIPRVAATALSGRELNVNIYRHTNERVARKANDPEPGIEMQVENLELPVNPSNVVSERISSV
measurement.kind: pKi
Formally, pKi is defined as -log10 of the concentration c, with c in mol/L.

# input Notebook entry, UniProt P08909 assay: pKi of COc1ccc2cccc(CCNC(C)=O)c2c1 [Agomelatine, reference compound] = ?
# output 9.19
